# measurement.target: UniProt:P51575
# assay.text: Antagonist activity at human P2X1R transfected in human 1321N1 cells assessed as inhibition of ATP-induced calcium influx
# Format: cell-based
assay.readout: IC50

>>> df
                            chemical_smiles  value_observed
0  Nc1ncnc2c1ncn2[C@@H]1O[C@H](COP(=O)(O)OP(=O)(O)OP(=O)(O)O)[C@H]2OC3(CCCCC3)O[C@H]21         8.06 µM

Req: Consider the compound shown here: CC1(C)O[C@@H]2[C@H](O1)[C@@H](C(=O)N[C@@H](CCC(=O)O)C(=O)O)O[C@H]2n1cnc2c(N)ncnc21 What is its recorded IC50?
Resp: > 100 µM

Req: Consider the compound shown here: Nc1ncnc2c1ncn2[C@@H]1O[C@H](COP(=O)(O)OP(=O)(O)OP(=O)(O)O)[C@H]2O[C@H](c3ccccc3)O[C@H]21 What is its recorded IC50?
Resp: > 100 µM

Req: Consider the compound shown here: CC1(C)O[C@@H]2[C@H](O1)[C@@H](COC(=O)c1cc(C(=O)O)c(C(=O)O)cc1C(=O)O)O[C@H]2n1cnc2c(N)ncnc21 What is its recorded IC50?
Resp: > 10 µM

----------
# measurement.target: P2X purinoceptor 3 (Homo sapiens, UniProt P56373)
# Sequence (P56373 whole entry): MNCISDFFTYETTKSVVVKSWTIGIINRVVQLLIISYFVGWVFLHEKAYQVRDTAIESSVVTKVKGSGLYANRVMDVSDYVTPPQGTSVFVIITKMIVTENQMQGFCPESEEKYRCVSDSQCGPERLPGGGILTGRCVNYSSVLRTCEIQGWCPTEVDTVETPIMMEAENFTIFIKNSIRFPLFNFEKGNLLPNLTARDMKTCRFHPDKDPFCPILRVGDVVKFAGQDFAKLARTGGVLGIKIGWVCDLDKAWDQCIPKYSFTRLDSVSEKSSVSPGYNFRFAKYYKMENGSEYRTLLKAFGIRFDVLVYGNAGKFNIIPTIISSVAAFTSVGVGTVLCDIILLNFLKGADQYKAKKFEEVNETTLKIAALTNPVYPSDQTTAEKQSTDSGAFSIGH
# assay.text: Antagonist activity at human P2X3R transfected in human 1321N1 cells assessed as inhibition of ATP-induced calcium influx
pIC50: −log10 of the molar value.
assay.readout: pIC50

>>> df
                            chemical_smiles  assay_readout  value_observed
0  Nc1ncnc2c1ncn2[C@@H]1O[C@H](COP(=O)(O)OP(=O)(O)OP(=O)(O)O)[C@H]2OC3(CCCCC3)O[C@H]21          pIC50            6.05

(P) Nc1ncnc2c1ncn2[C@@H]1O[C@H](COP(=O)(O)CP(=O)(O)OP(=O)(O)O)[C@H]2OC3(CCCCC3)O[C@H]21
(Q) CC1(C)O[C@@H]2[C@H](O1)[C@@H](COP(=O)(O)OP(=O)(O)OP(=O)(O)O)O[C@H]2n1cnc2c(N)ncnc21
Req: Lab log: flag the item ( P or Q ) with the smaller pIC50 figure. To answer, give the label that identifies your chosen option.
Resp: P

----------
Recorded pIC50 for the following compounds
# measurement.target: P2X purinoceptor 1 (Homo sapiens)
# Sequence (P51575 whole entry): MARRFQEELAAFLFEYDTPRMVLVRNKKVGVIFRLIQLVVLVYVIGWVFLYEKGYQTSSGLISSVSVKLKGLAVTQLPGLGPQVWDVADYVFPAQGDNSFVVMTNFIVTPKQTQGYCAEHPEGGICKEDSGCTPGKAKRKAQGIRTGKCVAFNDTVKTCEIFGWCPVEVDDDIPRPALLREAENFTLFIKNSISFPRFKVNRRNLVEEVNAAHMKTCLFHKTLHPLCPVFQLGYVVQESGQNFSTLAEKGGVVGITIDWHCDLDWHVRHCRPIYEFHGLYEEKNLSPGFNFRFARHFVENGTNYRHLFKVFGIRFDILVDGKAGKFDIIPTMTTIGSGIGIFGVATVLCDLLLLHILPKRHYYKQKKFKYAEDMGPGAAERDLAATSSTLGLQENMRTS
# assay.text: Antagonist activity at human P2X1R transfected in human 1321N1 cells assessed as inhibition of ATP-induced calcium influx
pIC50: −log10 of the molar value.

Previously resolved entries follow.
                            chemical_smiles                 measurement_target  assay_readout  value_observed
0  Nc1ncnc2c1ncn2[C@@H]1O[C@H](COP(=O)(O)CP(=O)(O)OP(=O)(O)O)[C@H]2OC3(CCCCC3)O[C@H]21  P2X purinoceptor 1 (Homo sapiens)          pIC50          < 4.00
1  Nc1ncnc2c1ncn2[C@@H]1O[C@H](COP(=O)(O)OP(=O)(O)OP(=O)(O)O)[C@H]2OCO[C@H]21  P2X purinoceptor 1 (Homo sapiens)          pIC50          < 4.00
2  Nc1ncnc2c1ncn2[C@@H]1O[C@H](COP(=O)(O)OP(=O)(O)OP(=O)(O)O)[C@H]2O[C@@H](c3ccccc3)O[C@H]21  P2X purinoceptor 1 (Homo sapiens)          pIC50          ≤ 5.00

// switching to the query compound
Req: Consider the compound shown here: CC1(C)O[C@@H]2[C@H](O1)[C@@H](COP(=O)(O)OP(=O)(O)OP(=O)(O)O)O[C@H]2n1cnc2c(N)ncnc21 What is its recorded pIC50?
Resp: 4.39

Hey, just so you know, these numbers are from ChEMBL document CHEMBL4433213.
